system: Schistosoma mansoni; assay: Percent [3H]uridine incorporation relative to controls for a dose of 50 ug/mL against hycanthone-resistant schistosomes; assay type: functional
Listing: Incorporation of selected compounds
readout: Incorporation (%)

[[record]]
compound = "Cc1ccc(S(=O)(=O)N/N=C/c2cc3c(cc2[N+](=O)[O-])NC(CNC(C)C)CC3)cc1 (centres undefined)"
unit_tag = "%"
number = 102

[[record]]
compound = "CC(C)NCC1CCc2cc(CO)c([N+](=O)[O-])cc2N1 (centres undefined) [OXAMNIQUINE]"
unit_tag = "%"
number = 97

[[record]]
compound = "CNC(=O)OCc1cc2c(cc1[N+](=O)[O-])NC(CNC(C)C)CC2 (centres undefined)"
unit_tag = "%"
number = 100

[[record]]
compound = "Cc1cc(C)c(S(=O)(=O)N/N=C/c2cc3c(cc2[N+](=O)[O-])NC(CNC(C)C)CC3)c(C)c1 (centres undefined)"
unit_tag = "%"
number = 100

